- PROCEDURE_TEXT: chemical genetic growth profiling, strain panel (AID 1159580);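 note: tested at 20 µM; growth read once vehicle control cultures reached saturation at 30 °C; lower values mean less growth of the strain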
- CONDITION_LABEL: S. cerevisiae deletion strains, growth OD, locus YLR039C, strain RIC1
Out of some 5,500 compounds screened, about 2,000 (36%) were called active. About 18% were inconclusive and are not listed. Cut-off read from the data, not from the text of the source: active = normalized growth mostly below about 0.91 (no sharp cut-off); inconclusive = no clear call, values can overlap the other calls; inactive = mostly above about 0.92. The list shows a part of the results.
Outcomes: active, inactive

MOLECULE	CLASS_NAME
CC(=O)OC1CCC2(C)C(CC(OC(C)=O)C3(C)C4=CC(=O)OC(c5ccoc5)C4(C)CCC23)C1(C)C (stereo unspecified)	inactive
Cc1cc(=O)n(-c2ccc([N+](=O)[O-])cc2)[nH]1	active
CN(C)CCCN1c2ccccc2CCc2ccc(Cl)cc21	active
Nc1ccc2nonc2c1N	inactive
CCOC(=O)c1ccc(NC(N)=S)cc1	inactive
CN(C)CCCN1c2ccccc2Sc2ccccc21	inactive
CC12CCC(=O)C=C1CCC1C2[C@@H](O)CC2(C)C1CC[C@]2(O)C(=O)COP(=O)(O)O (stereo partly specified)	inactive
CN(C)CCCN1c2ccccc2Sc2ccc(C(F)(F)F)cc21	inactive
CN(C)CCCN1c2ccccc2Sc2ccc(Cl)cc21	active
Cc1ccc(Sc2ccc([N+](=O)[O-])cc2/C=C2\SC(=S)NC2=O)cc1	active
O=C1NC(O)=NC1(c1ccccc1)c1ccccc1	inactive

---

- PROCEDURE_TEXT: chemical genetic growth profiling, strain panel (AID 1159580);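 note: tested at 20 µM; growth read once vehicle control cultures reached saturation at 30 °C; lower values mean less growth of the strain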
- CONDITION_LABEL: S. cerevisiae deletion strains, growth OD, locus YCL069W, strain vba3
In all, about 5,500 compounds went through this assay and about 2,000 (36%) were called active. Inconclusive results (about 18%) are left out. Rule as the data show it: active = normalized growth mostly below about 0.91 (no sharp cut-off); inconclusive = no clear call, values can overlap the other calls; inactive = mostly above about 0.92. This is one part of the list.
Outcomes: active, inactive

COMPOUND	CLASS_NAME
Cc1nc(N)cc(C[n+]2csc(CCO)c2C)n1	inactive
C=C1c2cccc(O)c2C(O)=C2C(=O)[C@]3(O)C(O)=C(C(N)=O)C(=O)[C@@H](N(C)C)[C@@H]3[C@@H](O)[C@H]12	inactive
NC(Cn1ccc(=O)c(O)c1)C(=O)O (centres undefined)	inactive
Cc1cn[nH]c1	inactive
COc1ccccc1OCC(O)CO (centres undefined)	inactive
C[C@H]1c2cccc(O)c2C(O)=C2C(=O)[C@]3(O)C(O)=C(C(N)=O)C(=O)[C@@H](N(C)C)[C@@H]3[C@@H](O)[C@@H]21	inactive
O=C1NC(O)=NC1(c1ccccc1)c1ccccc1	inactive
C=C1C[C@]23C[C@@]1(O)CC[C@H]2[C@@]12C=C[C@H](O)[C@@](C)(C(=O)O1)[C@H]2[C@@H]3C(=O)O	inactive
NC1=NCCN1CC(=O)O	inactive
NCC(N)C(=O)c1ccccc1 (centres undefined)	inactive
OC[C@H]1O[C@@H](O[C@@H]2[C@@H](CO)O[C@](O)(CO)[C@H]2O)[C@H](O)[C@@H](O)[C@H]1O	inactive
CC[N+](C)(C)c1cccc(O)c1	inactive
NS(=O)(=O)c1cc2c(cc1Cl)NC(CSCc1ccccc1)=NS2(=O)=O	inactive
CC(=O)Oc1ccc(/C=C/c2cc(OC(C)=O)cc(OC(C)=O)c2)cc1	inactive
CC(=O)OCC(=O)[C@@]1(O)[C@H](C)CC2C3CCC4=CC(=O)C=C[C@]4(C)[C@@]3(F)[C@@H](O)C[C@@]21C (some centres undefined)	inactive
CO[C@H]1CC(O[C@@H]2/C(C)=C/C[C@@H]3C[C@@H](C[C@]4(CC[C@H](C)[C@@H](C5CCCCC5)O4)O3)OC(=O)[C@@H]3C=C(C)/C(=N\O)[C@H]4OC/C(=C\C=C\[C@@H]2C)[C@]43O)O[C@@H](C)C1O (some centres undefined)	inactive
O=C(OOC(=O)c1ccccc1)c1ccccc1	inactive
Cc1cc(=O)oc2cc(O)cc(O)c12	inactive
CC(=O)c1ccc(O)c(CC=C(C)C)c1	inactive
CC12CCC3C(CC3(C)C)C(C)(CCC1=O)O2 (centres undefined)	inactive
CCCSc1ccc2nc(NC(=O)OC)[nH]c2c1	inactive
NC(=O)NC(=O)Cc1ccccc1	inactive
COc1cc(C/C=C/c2ccccc2)c(OC)cc1O	inactive
CC(=O)c1cc(CC=C(C)C)c(O)c(CC=C(C)C)c1	inactive
CN(C)[C@@H]1C(=O)C(C(N)=O)=C(O)[C@@]2(O)C(=O)C3=C(O)c4c(O)ccc(Cl)c4[C@@](C)(O)[C@H]3C[C@@H]12	inactive
Cc1cc(=O)[nH]c(=S)[nH]1	inactive
Oc1c(Cl)cc(Cl)cc1Sc1cc(Cl)cc(Cl)c1O	active
CN1CCN(C(=O)OC2c3nccnc3C(=O)N2c2ccc(Cl)cn2)CC1 (centres undefined)	inactive
CC1=CC(=O)c2ccccc2C1=O	inactive
C=C1c2c(Cl)ccc(O)c2C(O)=C2C(=O)[C@]3(O)C(O)=C(C(N)=O)C(=O)[C@@H](N(C)C)[C@@H]3[C@@H](O)[C@H]12	inactive
CN(C)[C@@H]1C(=O)C(C(N)=O)=C(O)[C@@]2(O)C(=O)C3=C(O)c4c(O)cccc4[C@@](C)(O)[C@H]3[C@H](O)[C@@H]12	inactive
CC(C)=CCc1c2c(c3occ(-c4ccc(O)c(O)c4)c(=O)c3c1O)C=CC(C)(C)O2	inactive
CCCc1cc(=O)[nH]c(=S)[nH]1	inactive
CC(C)NCC(O)COc1ccc(COCCOC(C)C)cc1 (centres undefined)	inactive
COc1ccc2cc(CCC(C)=O)ccc2c1	inactive
COc1cc(C(C)=O)cc(OC)c1O	inactive
COc1ccc([C@@H]2CC(=O)c3c(O)cc(O[C@@H]4O[C@H](CO[C@H]5O[C@@H](C)[C@H](O)[C@@H](O)[C@H]5O)[C@@H](O)[C@H](O)[C@H]4O)cc3O2)cc1O	inactive
Cc1scc2c1N(C(=O)CN1CCN(C)CC1)c1ccccc1NC2=O	inactive
CCN(CC)CCOC(=O)C1(C2CCCCC2)CCCCC1	inactive

Source of measurements: PubChem BioAssay AID1159580
